Origin of the recorded values: paper PMC9490236

test_summary: Pharmacokinetics and oral bioavailability of D11.2 in male SD rats (IV, PO, SQ)
Type: in vivo
condition_notes: male, Sprague-Dawley, rat, plasma, subcutaneous, 1 mg/kg, SQ 1 mg/kg, Mean
Where a SMILES comes first, the peptide text is derived from it. [ ]: non-standard residue; d: D form. NMeL = CN[C@@H](CC(C)C)C(=O)O; Sar = CNCC(=O)O
measured_parameter: bioavailability
Enter the number, and then the unit.

GET /values?readout=bioavailability&item= CC[C@@H](C)[C@H]1NC(=O)[C@@H]2CCCN2C(=O)[C@@H]([C@H](C)CC)NC(=O)CN(C)C(=O)[C@H](CC(C)C)NC(=O)[C@@H](Cc2ccccc2)NC(=O)[C@H](CC(C)C)N(C)C(=O)[C@H]2CCCN2C(=O)[C@@H](CC(C)C)NC(=O)[C@H](CC(C)C)NC(=O)[C@H]2CCCN2C1=O [Design D11.2] (cyclo(L[Sar][dI]P[dI][dP]L[dL][dP][NMeL][dF])) 119%
